Measured values drawn from patent US11634451B2 for this set.

Test system: OneTaq polymerase
Assay protocol: PCR-based screen and amplification of DNA containing unnatural base pairs, OneTaq (Example 1)
Type: biochemical
Condition context: ^b 10 pg D6 template, 24 cycles, OneTaq polymerase, 68° C. for 10 s
Marks after values point to notes of the source that are not given here.
Quantity name: Retention, %

compound="COc1cc(Cl)ccc1[C@H]1C[C@H](O)[C@@H](COP(=O)(O)OP(=O)(O)OP(=O)(O)O)O1.O=P(O)(O)OP(=O)(O)OP(=O)(O)OC[C@H]1O[C@@H](n2ccc3ccsc3c2=S)C[C@@H]1O [TPT3-CIMO]" result_value="90^b %"
compound="COc1cc(I)ccc1[C@H]1C[C@H](O)[C@@H](COP(=O)(O)OP(=O)(O)OP(=O)(O)O)O1.O=P(O)(O)OP(=O)(O)OP(=O)(O)OC[C@H]1O[C@@H](n2ccc3ncccc3c2=S)C[C@@H]1O [SNICS-IMO]" result_value="88^b %"
compound="COc1cc(N=[N+]=[N-])ccc1[C@H]1C[C@H](O)[C@@H](COP(=O)(O)OP(=O)(O)OP(=O)(O)O)O1.O=P(O)(O)OP(=O)(O)OP(=O)(O)OC[C@H]1O[C@@H](n2ccc3ccsc3c2=S)C[C@@H]1O [TPT3-ZMO]" result_value="86^b %"
compound="C#Cc1cc(OC)c([C@H]2C[C@H](O)[C@@H](COP(=O)(O)OP(=O)(O)OP(=O)(O)O)O2)cc1F.O=P(O)(O)OP(=O)(O)OP(=O)(O)OC[C@H]1O[C@@H](n2ccc3ccccc3c2=S)C[C@@H]1O [SICS-FEMO]" result_value="92^b %"
compound="C#Cc1cc(OC)c([C@H]2C[C@H](O)[C@@H](COP(=O)(O)OP(=O)(O)OP(=O)(O)O)O2)cc1F.O=P(O)(O)OP(=O)(O)OP(=O)(O)OC[C@H]1O[C@@H](n2ccc3ncccc3c2=S)C[C@@H]1O [SNICS-FEMO]" result_value="95^b %"

----------
Assay target: Klenow fragment of E. coli DNA polymerase I (Escherichia coli, UniProt P00582)
Construct: the Klenow fragment of E. coli DNA polymerase I
Sequence (P00582 324-928): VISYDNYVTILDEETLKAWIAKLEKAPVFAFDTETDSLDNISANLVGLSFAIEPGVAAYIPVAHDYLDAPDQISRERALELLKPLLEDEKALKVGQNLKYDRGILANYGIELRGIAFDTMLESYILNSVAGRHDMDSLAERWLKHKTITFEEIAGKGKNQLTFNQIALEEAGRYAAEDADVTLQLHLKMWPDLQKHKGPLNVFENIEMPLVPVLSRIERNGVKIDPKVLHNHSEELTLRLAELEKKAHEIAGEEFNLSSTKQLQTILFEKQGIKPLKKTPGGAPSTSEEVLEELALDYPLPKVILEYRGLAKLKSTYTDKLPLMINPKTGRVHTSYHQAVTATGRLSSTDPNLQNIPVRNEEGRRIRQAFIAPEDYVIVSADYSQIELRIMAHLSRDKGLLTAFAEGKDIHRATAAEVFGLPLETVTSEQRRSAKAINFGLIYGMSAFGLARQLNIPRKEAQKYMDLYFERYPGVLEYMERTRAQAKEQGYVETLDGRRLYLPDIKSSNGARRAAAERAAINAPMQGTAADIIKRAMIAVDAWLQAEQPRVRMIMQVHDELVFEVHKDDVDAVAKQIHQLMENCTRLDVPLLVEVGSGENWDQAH
Assay protocol: Presteady-state kinetics: incorporation of unnatural triphosphate opposite dNaM and extension
Type: biochemical
Condition context: 10 μM unnatural triphosphate, 2 μM dCTP, 10 s; dXTPs paired with dNaM
Readings of % Extension for the listed compounds
Quantity name: % Extension (%)

compound="Cc1cc2c(=S)n([C@H]3C[C@H](O)[C@@H](COP(=O)(O)OP(=O)(O)OP(=O)(O)O)O3)ccc2s1 [TPT1]" result_value=8.8
compound="Cc1cc2ccn([C@H]3C[C@H](O)[C@@H](COP(=O)(O)OP(=O)(O)OP(=O)(O)O)O3)c(=S)c2s1 [TPT2]" result_value=34.5
compound="O=P(O)(O)OP(=O)(O)OP(=O)(O)OC[C@H]1O[C@@H](n2cc(F)c3ccsc3c2=S)C[C@@H]1O [FTPT3]" result_value=33.8
compound="Cc1cc2c(=S)n([C@H]3C[C@H](O)[C@@H](COP(=O)(O)OP(=O)(O)OP(=O)(O)O)O3)ccc2o1 [FPT1]" result_value=32.0

----------
Readings of Retention, % for the listed compounds
Assay target: Taq polymerase (Thermus aquaticus, UniProt P19821)
Construct: purchased New England Biolabs (Ipswich, Mass.)
Sequence (P19821 whole entry): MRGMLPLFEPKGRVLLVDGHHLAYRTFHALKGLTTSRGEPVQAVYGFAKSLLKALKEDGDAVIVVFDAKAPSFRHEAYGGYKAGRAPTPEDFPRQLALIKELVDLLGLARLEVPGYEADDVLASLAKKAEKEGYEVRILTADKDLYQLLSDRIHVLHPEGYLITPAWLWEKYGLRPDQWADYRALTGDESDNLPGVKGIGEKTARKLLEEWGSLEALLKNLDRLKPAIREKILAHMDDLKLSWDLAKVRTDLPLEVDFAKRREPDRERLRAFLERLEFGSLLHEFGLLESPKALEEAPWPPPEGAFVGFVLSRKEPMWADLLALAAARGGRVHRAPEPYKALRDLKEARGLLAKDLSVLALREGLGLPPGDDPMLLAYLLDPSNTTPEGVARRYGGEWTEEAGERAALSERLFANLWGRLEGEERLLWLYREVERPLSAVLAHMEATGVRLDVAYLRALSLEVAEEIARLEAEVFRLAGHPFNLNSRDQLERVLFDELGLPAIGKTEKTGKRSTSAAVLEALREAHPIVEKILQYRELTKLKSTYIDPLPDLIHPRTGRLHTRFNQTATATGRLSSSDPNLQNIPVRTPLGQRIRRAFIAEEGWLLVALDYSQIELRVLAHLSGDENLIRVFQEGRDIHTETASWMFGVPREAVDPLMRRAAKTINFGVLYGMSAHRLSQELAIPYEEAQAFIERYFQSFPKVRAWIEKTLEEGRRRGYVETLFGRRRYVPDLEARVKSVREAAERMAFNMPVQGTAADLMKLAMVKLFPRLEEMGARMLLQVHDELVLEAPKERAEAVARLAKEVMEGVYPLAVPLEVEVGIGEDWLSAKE
Assay protocol: PCR-based screen and amplification of DNA containing unnatural base pairs, Taq (Example 1)
Format: biochemical
Condition context: ^a 100 pg D8 template, 16 cycles, Taq polymerase, 68° C. for 60 s
Procedure: […] Specific PCR assay conditions. […] After elution with 20 μl of water, the DNA concentration was measured using fluorescent dye binding (Quant-iT dsDNA HS Assay kit, Life Technologies), and purified amplicons were sequenced in triplicate with both Primer1 and Primer2 to determine UBP retention and thus amplification fidelity. […]
Marks after values point to notes of the source that are not given here.
Quantity name: Retention, %

chemical_smiles=COc1cc2ccccc2cc1[C@H]1C[C@H](O)[C@@H](COP(=O)(O)OP(=O)(O)OP(=O)(O)O)O1.O=P(O)(O)OP(=O)(O)OP(=O)(O)OC[C@H]1O[C@@H](n2ccc3ncccc3c2=S)C[C@@H]1O assay_target="Taq polymerase (Thermus aquaticus, UniProt P19821)" result_value="90^a %"
chemical_smiles=COc1cc2ccccc2cc1[C@H]1C[C@H](O)[C@@H](COP(=O)(O)OP(=O)(O)OP(=O)(O)O)O1.O=P(O)(O)OP(=O)(O)OP(=O)(O)OC[C@H]1O[C@@H](n2ccc3ccccc3c2=S)C[C@@H]1O assay_target="Taq polymerase (Thermus aquaticus, UniProt P19821)" result_value="99^a %"
chemical_smiles=COc1cc(C#N)ccc1[C@H]1C[C@H](O)[C@@H](COP(=O)(O)OP(=O)(O)OP(=O)(O)O)O1.O=P(O)(O)OP(=O)(O)OP(=O)(O)OC[C@H]1O[C@@H](n2cc(F)c3ccsc3c2=S)C[C@@H]1O assay_target="Taq polymerase (Thermus aquaticus, UniProt P19821)" result_value="94^a %"
chemical_smiles=COc1cc(N=[N+]=[N-])ccc1[C@H]1C[C@H](O)[C@@H](COP(=O)(O)OP(=O)(O)OP(=O)(O)O)O1.O=P(O)(O)OP(=O)(O)OP(=O)(O)OC[C@H]1O[C@@H](n2cc(F)c3ccsc3c2=S)C[C@@H]1O assay_target="Taq polymerase (Thermus aquaticus, UniProt P19821)" result_value="88^a %"

----------
Test system: OneTaq polymerase
Assay protocol: PCR-based screen and amplification of DNA containing unnatural base pairs, OneTaq (Example 1)
Type: biochemical
Condition context: OneTaq, 16 cycles, 1 min extension; -^a = no amplification was detected
# if measured Amplification < 900: met  # else: not met

compound=COc1cc(C)ccc1[C@H]1C[C@H](O)[C@@H](COP(=O)(O)OP(=O)(O)OP(=O)(O)O)O1.O=P(O)(O)OP(=O)(O)OP(=O)(O)OC[C@H]1O[C@@H](n2ccc3ccsc3c2=S)C[C@@H]1O discrete_label="not met"
compound=Cc1ccc([C@H]2C[C@H](O)[C@@H](COP(=O)(O)OP(=O)(O)OP(=O)(O)O)O2)c(N)n1.O=P(O)(O)OP(=O)(O)OP(=O)(O)OC[C@H]1O[C@@H](n2ccc3ccsc3c2=S)C[C@@H]1O discrete_label="not met"
compound="CSc1ccc(C2CC(O)C(CO)O2)c(SC)n1.OCC1OC(n2ccc3ccsc3c2=S)CC1O (stereo not shown)" discrete_label=met
compound=COc1cc2ccccc2cc1[C@H]1C[C@H](O)[C@@H](COP(=O)(O)OP(=O)(O)OP(=O)(O)O)O1.O=P(O)(O)OP(=O)(O)OP(=O)(O)OC[C@H]1O[C@@H](n2ccc3ccsc3c2=S)C[C@@H]1O discrete_label="not met"
compound=COc1ccc([C@H]2C[C@H](O)[C@@H](COP(=O)(O)OP(=O)(O)OP(=O)(O)O)O2)c(OC)c1.O=P(O)(O)OP(=O)(O)OP(=O)(O)OC[C@H]1O[C@@H](n2ccc3ccsc3c2=S)C[C@@H]1O discrete_label=met
compound=CSc1nc(C)ccc1[C@H]1C[C@H](O)[C@@H](COP(=O)(O)OP(=O)(O)OP(=O)(O)O)O1.O=P(O)(O)OP(=O)(O)OP(=O)(O)OC[C@H]1O[C@@H](n2ccc3ccsc3c2=S)C[C@@H]1O discrete_label=met
compound=Cc1ccc([C@H]2C[C@H](O)[C@@H](COP(=O)(O)OP(=O)(O)OP(=O)(O)O)O2)c(Cl)n1.O=P(O)(O)OP(=O)(O)OP(=O)(O)OC[C@H]1O[C@@H](n2ccc3ccsc3c2=S)C[C@@H]1O discrete_label="not met"

----------
System: OneTaq polymerase
Assay protocol: PCR-based screen and amplification of DNA containing unnatural base pairs, OneTaq (Example 1)
Assay type: biochemical
Condition context: OneTaq, 1 min Extension, 52 cycles, D6 template
Readings of Retention, % for the listed compounds
Quantity name: Retention, %

compound=COc1cc2ccccc2cc1[C@H]1C[C@H](O)[C@@H](COP(=O)(O)OP(=O)(O)OP(=O)(O)O)O1.O=P(O)(O)OP(=O)(O)OP(=O)(O)OC[C@H]1O[C@@H](n2cc(F)c3ccsc3c2=S)C[C@@H]1O result_value="90 ± 2%"
compound="COc1cc2ccccc2cc1[C@H]1C[C@H](O)[C@@H](COP(=O)(O)OP(=O)(O)OP(=O)(O)O)O1.Cc1ccc2c(=S)n([C@H]3C[C@H](O)[C@@H](COP(=O)(O)OP(=O)(O)OP(=O)(O)O)O3)ccc2c1 [5SICS-NaM, reference compound]" result_value="77.1 ± 0.7%"

----------
Assay target: Taq polymerase (Thermus aquaticus, UniProt P19821)
Construct: purchased New England Biolabs (Ipswich, Mass.)
Assay protocol: PCR-based screen and amplification of DNA containing unnatural base pairs, Taq (Example 1)
Type: biochemical
Condition context: Taq, 10 s Extension, 52 cycles, D6 template
Readings of Retention, % for the listed compounds
Quantity name: Retention, % (%)

compound="COc1cc2ccccc2cc1[C@H]1C[C@H](O)[C@@H](COP(=O)(O)OP(=O)(O)OP(=O)(O)O)O1.O=P(O)(O)OP(=O)(O)OP(=O)(O)OC[C@H]1O[C@@H](n2cc(F)c3ccsc3c2=S)C[C@@H]1O [FTPT3-NaM]" result_value=91
compound="C#Cc1cc(OC)c([C@H]2C[C@H](O)[C@@H](COP(=O)(O)OP(=O)(O)OP(=O)(O)O)O2)cc1F.O=P(O)(O)OP(=O)(O)OP(=O)(O)OC[C@H]1O[C@@H](n2cc(F)c3ccsc3c2=S)C[C@@H]1O [FTPT3-FEMO]" result_value=81
compound="COc1cc(I)c(F)cc1[C@H]1C[C@H](O)[C@@H](COP(=O)(O)OP(=O)(O)OP(=O)(O)O)O1.O=P(O)(O)OP(=O)(O)OP(=O)(O)OC[C@H]1O[C@@H](n2ccc3ccsc3c2=S)C[C@@H]1O [TPT3-FIMO]" result_value=84
